- Tested on: Moraxella catarrhalis
- PROTOCOL DESCRIPTION: Antibacterial activity against Moraxella catarrhalis BC-3531 by micro-broth method
- Type: functional
EXPERIMENTAL ENDPOINT: MIC (µg/mL)

The following compounds have reported results that may help.
TEST SMILES	RECORDED NUMBER
CCCC(=O)NC[C@H]1CN(c2ccc3c(c2)CCCc2c(CCC)n[nH]c2-3)C(=O)O1	8
CC(C)C(=O)NC[C@H]1CN(c2ccc3c(c2)CCCc2c(C(C)C)n[nH]c2-3)C(=O)O1	32
O=C(NC[C@H]1CN(c2ccc3c(c2)CCCc2c(-c4ccno4)n[nH]c2-3)C(=O)O1)c1cccnc1	32
CC(=O)NC[C@H]1CN(c2ccc3c(c2)CCCc2c(-c4cc(C)n(C)n4)n[nH]c2-3)C(=O)O1	4

(I) CC(=O)NC[C@H]1CN(c2ccc3c(c2)CCCc2cn[nH]c2-3)C(=O)O1
(II) O=C(NC[C@H]1CN(c2ccc3c(c2)CCCc2c(-c4ccoc4)n[nH]c2-3)C(=O)O1)c1ccoc1
Challenge: In the pair I and II , the larger recorded MIC belongs to which? When you have decided, please share the label of that item.
Response given: II
(II: 4 µg/mL, I: 2 µg/mL)

(A) CC(=O)NC[C@H]1CN(c2ccc3c(c2)CCCc2c(-c4cccnc4)n[nH]c2-3)C(=O)O1
(B) CC(=O)NC[C@H]1CN(c2ccc3c(c2)CCCc2c(-c4ccc(F)cc4)n[nH]c2-3)C(=O)O1
Challenge: In the pair A and B , the larger recorded MIC belongs to which? When you have decided, please share the label of that item.
Response given: A
(A: 2 µg/mL, B: 1 µg/mL)

====

- Tested on: Moraxella catarrhalis
- PROTOCOL DESCRIPTION: Antibacterial activity against Moraxella catarrhalis BC-3531 by micro-broth method
- Assay type: functional
EXPERIMENTAL ENDPOINT: MIC (µg/mL)

The following compounds have reported results that may help.
TEST SMILES	EXPERIMENTAL ENDPOINT	RECORDED NUMBER
CC(=O)NC[C@H]1CN(c2cc(F)c3c(c2)CCCc2c(-c4cc(C)on4)n[nH]c2-3)C(=O)O1	MIC	4
CC(=O)NC[C@H]1CN(c2ccc3c(c2)CCCc2c(-c4ccno4)n[nH]c2-3)C(=O)O1	MIC	1
NC[C@H]1CN(c2ccc3c(c2)CCCc2c(-c4ccno4)n[nH]c2-3)C(=O)O1	MIC	64
CC(=O)NC[C@H]1CN(c2ccc3c(c2)CCCc2c(-c4ccc(C#N)cc4)n[nH]c2-3)C(=O)O1	MIC	1
CC(=O)NC[C@H]1CN(c2ccc3c(c2)CCCc2c(-c4ccc(O)cc4)n[nH]c2-3)C(=O)O1	MIC	2

(I) CC(=O)NC[C@H]1CN(c2ccc3c(c2)CCCc2c(-c4ccncc4)n[nH]c2-3)C(=O)O1
(II) O=C(NC[C@H]1CN(c2ccc3c(c2)CCCc2c(-c4cccnc4)n[nH]c2-3)C(=O)O1)c1cccnc1
Challenge: In the pair I and II , the larger recorded MIC belongs to which? When you have decided, please share the label of that item.
Response given: II
(II: 16 µg/mL, I: 2 µg/mL)

(P) CC(=O)NC[C@H]1CN(c2cc(F)c3c(c2)CCCc2c(-c4ccno4)n[nH]c2-3)C(=O)O1
(Q) CC(=O)NC[C@H]1CN(c2ccc3c(c2)CCCc2c(-c4cc5ccccc5o4)n[nH]c2-3)C(=O)O1
(R) O=C(NC[C@H]1CN(c2ccc3c(c2)CCCc2c(-c4ccno4)n[nH]c2-3)C(=O)O1)C1CC1
(S) CC(=O)NC[C@H]1CN(c2ccc3c(c2)CCCc2c(-c4cc(C)on4)n[nH]c2-3)C(=O)O1
(T) CC(=O)NC[C@H]1CN(c2cc(F)c3c(c2)CCCc2c(-c4cc(C)n(C)n4)n[nH]c2-3)C(=O)O1
Challenge: Please list these in order of increasing MIC. Thank you! Present the labels in the sequence the task asks for.
Response given: R, S, P, Q, T
(R: 1 µg/mL, S: 2 µg/mL, P: 4 µg/mL, Q: 8 µg/mL, T: 32 µg/mL)

(P) CC(=O)NC[C@H]1CN(c2ccc3c(c2)CCCc2c(-c4ccccc4)n[nH]c2-3)C(=O)O1
(Q) CC(=O)NC[C@H]1CN(c2cc(F)c3c(c2)CCCc2cn[nH]c2-3)C(=O)O1
Challenge: In the pair P and Q , the larger recorded MIC belongs to which? When you have decided, please share the label of that item.
Response given: Q

(a) CC(=O)NC[C@H]1CN(c2ccc3c(c2)CCCc2c(C)n[nH]c2-3)C(=O)O1
(b) CC(=O)NC[C@H]1CN(c2ccc3c(c2)CCCc2c(-c4snnc4C)n[nH]c2-3)C(=O)O1
(c) CC(=O)NC[C@H]1CN(c2ccc3c(c2)CCCc2c(C(C)C)n[nH]c2-3)C(=O)O1
(d) CC(=O)NC[C@H]1CN(c2ccc3c(c2)CCCc2c(C(F)(F)F)n[nH]c2-3)C(=O)O1
Challenge: Please list these in order of increasing MIC. Thank you! Present the labels in the sequence the task asks for.
Response given: d, b, a, c

====

- System: Streptococcus pneumoniae
- PROTOCOL DESCRIPTION: Antibacterial activity against Streptococcus pneumoniae SV1 SP3 by micro-broth method
- Type: functional
EXPERIMENTAL ENDPOINT: MIC (µg/mL)

The following compounds have reported results that may help.
TEST SMILES	UNIT SYMBOL	RECORDED NUMBER
O=C(NC[C@H]1CN(c2ccc3c(c2)CCCc2c(-c4ccno4)n[nH]c2-3)C(=O)O1)c1cccnc1	µg/mL	1
CC(=O)NC[C@H]1CN(c2ccc3c(c2)CCCc2c(-c4ccc(O)cc4)n[nH]c2-3)C(=O)O1	µg/mL	0.25
O=C(NC[C@H]1CN(c2ccc3c(c2)CCCc2c(-c4ccno4)n[nH]c2-3)C(=O)O1)C(F)F	µg/mL	0.25
NC[C@H]1CN(c2ccc3c(c2)CCCc2c(-c4ccno4)n[nH]c2-3)C(=O)O1	µg/mL	4

(P) CC(=O)NC[C@H]1CN(c2ccc3c(c2)CCCCC3=O)C(=O)O1
(Q) CCc1n[nH]c2c1CCCc1cc(N3C[C@H](CNC(C)=O)OC3=O)ccc1-2
Challenge: Hi there, can you help? I need to know whether P or Q has lower measured MIC. When you have decided, please share the label of that item.
Response given: Q

(a) CC(=O)NC[C@H]1CN(c2cc(F)c3c(c2)CCCc2c(-c4cc(C)on4)n[nH]c2-3)C(=O)O1
(b) CC(=O)NC[C@H]1CN(c2ccc3c(c2)CCCc2c(-c4cscn4)n[nH]c2-3)C(=O)O1
Challenge: In the pair a and b , the larger recorded MIC belongs to which? When you have decided, please share the label of that item.
Response given: a
(a: 0.5 µg/mL, b: 0.125 µg/mL)

(a) CC(=O)NC[C@H]1CN(c2ccc3c(c2)CCCc2c(C)n[nH]c2-3)C(=O)O1
(b) O=C(NC[C@H]1CN(c2ccc3c(c2)CCCc2c(-c4ccno4)n[nH]c2-3)C(=O)O1)C1CC1
(c) O=C(NC[C@H]1CN(c2ccc3c(c2)CCCc2c(-c4ccoc4)n[nH]c2-3)C(=O)O1)c1ccoc1
Challenge: Order the items by recorded MIC; the first position goes to the largest value. Present the labels in the sequence the task asks for.
Response given: c, a, b
(c: 1 µg/mL, a: 0.5 µg/mL, b: 0.25 µg/mL)

(P) CC(=O)NC[C@H]1CN(c2ccc3c(c2)CCCc2c(-c4ccccc4)n[nH]c2-3)C(=O)O1
(Q) CC(=O)NC[C@H]1CN(c2ccc3c(c2)CCCc2c(-c4cc(C)n(C)n4)n[nH]c2-3)C(=O)O1
Challenge: In the pair P and Q , the larger recorded MIC belongs to which? When you have decided, please share the label of that item.
Response given: P
(P: 0.5 µg/mL, Q: 0.25 µg/mL)

(P) CC(=O)NC[C@H]1CN(c2ccc3c(c2)CCCc2c(-c4cc5ccccc5o4)n[nH]c2-3)C(=O)O1
(Q) CC(=O)NC[C@H]1CN(c2ccc3c(c2)CCCc2c(-c4ccoc4)n[nH]c2-3)C(=O)O1
Challenge: Hi there, can you help? I need to know whether P or Q has lower measured MIC. When you have decided, please share the label of that item.
Response given: Q
(Q: 0.25 µg/mL, P: 0.5 µg/mL)

====

- Test system: Staphylococcus aureus
- PROTOCOL DESCRIPTION: Antibacterial activity against Staphylococcus aureus UC76 SA1 by micro-broth method
- Assay type: functional
EXPERIMENTAL ENDPOINT: MIC (µg/mL)

TEST SMILES	EXPERIMENTAL ENDPOINT	RECORDED NUMBER
CC(=O)NC[C@H]1CN(c2ccc3c(c2)CCCc2cn[nH]c2-3)C(=O)O1	MIC	0.5

(1) CC(=O)NC[C@H]1CN(c2cc(F)c3c(c2)CCCc2c(-c4cc(C)n(C)n4)n[nH]c2-3)C(=O)O1
(2) O=C(NC[C@H]1CN(c2ccc3c(c2)CCCc2c(-c4cc5ccccc5o4)n[nH]c2-3)C(=O)O1)c1cc2ccccc2o1
(3) CC(=O)NC[C@H]1CN(c2ccc3c(c2)CCCc2c(-c4ccncc4)n[nH]c2-3)C(=O)O1
Challenge: Order the items by recorded MIC; the first position goes to the largest value. Present the labels in the sequence the task asks for.
Response given: 2, 1, 3
